Target: Recombinant ROCK2 (amino acids 5-554) (Homo sapiens)
Construct: ROCK2 (amino acids 5-554)
Sequence (O75116 5-554): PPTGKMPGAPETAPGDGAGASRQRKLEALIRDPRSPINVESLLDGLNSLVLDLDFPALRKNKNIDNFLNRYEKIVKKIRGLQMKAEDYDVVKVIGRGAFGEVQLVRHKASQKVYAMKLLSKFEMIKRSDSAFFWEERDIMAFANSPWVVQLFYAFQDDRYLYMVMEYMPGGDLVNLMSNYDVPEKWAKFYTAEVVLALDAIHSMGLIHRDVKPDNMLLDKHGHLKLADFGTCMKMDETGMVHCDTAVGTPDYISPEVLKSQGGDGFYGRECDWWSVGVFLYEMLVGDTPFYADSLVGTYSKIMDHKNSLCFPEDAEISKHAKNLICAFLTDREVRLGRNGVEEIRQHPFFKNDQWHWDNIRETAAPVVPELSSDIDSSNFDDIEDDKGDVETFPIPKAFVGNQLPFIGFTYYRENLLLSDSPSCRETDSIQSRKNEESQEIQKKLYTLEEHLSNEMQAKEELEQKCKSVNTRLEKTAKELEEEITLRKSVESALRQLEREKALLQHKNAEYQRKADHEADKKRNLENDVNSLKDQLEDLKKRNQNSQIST
Assay: ROCK inhibition assay, LANCE Ultra TR-FRET kinase assay
Assay type: biochemical
Conditions: at Km of ATP (table title); method: 1 mM ATP, 50 nM ULight-CREBtide substrate, 1 hour, room temperature
pIC50: −log10 of the molar value.
parameter: pIC50

Study these solved cases before continuing.
| molecule | result |
| --- | --- |
| COc1[nH]ncc1-c1cc2c(cn1)c(C(=O)[C@H]1COc3ccc(Cl)cc3C1)cn2C[C@H](C)O [Compound 1-34] | 7.30 to 7.96 |
| O=C(c1cn(CCO)c2cc(-c3cn[nH]c3)ccc12)C1COc2cc(Cl)c(Cl)cc2O1 (stereo not drawn) [Compound 2-12] | 6.30 to 7.29 |
| COc1n[nH]cc1-c1ccc2c(C(=O)C3COc4ccc(Cl)cc4C3)nn(CC#N)c2c1 (stereo not drawn) [Compound 2-29] | 6.30 to 7.29 |
| COc1n[nH]cc1-c1ccc2c(C(=O)[C@@H]3COc4ccc(Cl)cc4C3)cn(CCO)c2c1 (single isomer, unassigned) [Compound 2-18] | > 8.00 |
| O=C(c1cn(CCO)c2cc(-c3c[nH]nc3Cl)ccc12)C1COc2ccccc2O1 (stereo not drawn) [Compound 2-4] | > 8.00 |
| Cc1n[nH]cc1-c1ccc2c(C(=O)C3COc4ccc(F)cc4C3)cn(CCO)c2n1 (stereo not drawn) [Compound 1-15] | > 8.00 |

In: Which pIC50 is reported with Recombinant ROCK2 (amino acids 5-554) (Homo sapiens) for this entry: COc1ccc2c(c1)CC(C(=O)c1cn(CC(C)(C)O)c3cc(-c4cn[nH]c4Cl)ncc13)CO2 (stereo not drawn) [Compound 1-29] ?
Out: > 8.00

In: Which pIC50 is reported with Recombinant ROCK2 (amino acids 5-554) (Homo sapiens) for this entry: COc1ccc2c(c1)CC(C(=O)c1cn(C[C@H](C)O)c3cc(-c4cn[nH]c4F)ncc13)CO2 (stereo partly drawn) [Compound 1-25] ?
Out: > 8.00

In: Which pIC50 is reported with Recombinant ROCK2 (amino acids 5-554) (Homo sapiens) for this entry: COc1ccc2c(c1)CC(C(=O)c1cn(CCO)c3nc(-c4c[nH]nc4Cl)ccc13)CO2 (stereo not drawn) [Compound 1-22] ?
Out: > 8.00

In: Which pIC50 is reported with Recombinant ROCK2 (amino acids 5-554) (Homo sapiens) for this entry: CC(C)(O)Cn1cc(C(=O)C2COc3ccc(Cl)cc3C2)c2cnc(-c3cn[nH]c3F)nc21 (stereo not drawn) [Compound 1-54] ?
Out: > 8.00

In: Which pIC50 is reported with Recombinant ROCK2 (amino acids 5-554) (Homo sapiens) for this entry: C[C@H](O)Cn1cc(C(=O)[C@@H]2COc3ccc(Cl)cc3C2)c2cnc(-c3cn[nH]c3Cl)cc21 [Compound 1-9] ?
Out: > 8.00

In: Which pIC50 is reported with Recombinant ROCK2 (amino acids 5-554) (Homo sapiens) for this entry: C[C@@H](O)Cn1cc(C(=O)C2COc3ccc(F)cc3C2)c2cnc(-c3cn[nH]c3F)nc21 (stereo partly drawn) [Compound 1-48] ?
Out: > 8.00

In: Which pIC50 is reported with Recombinant ROCK2 (amino acids 5-554) (Homo sapiens) for this entry: COc1n[nH]cc1-c1ccc2c(C(=O)C3COc4ccc(Cl)cc4C3)cn(C[C@H](C)O)c2c1 (stereo partly drawn) [Compound 1-43] ?
Out: 7.30 to 7.96

In: Which pIC50 is reported with Recombinant ROCK2 (amino acids 5-554) (Homo sapiens) for this entry: COc1ccc2c(c1)CC(C(=O)c1cn(CCO)c3cc(-c4cn[nH]c4F)ncc13)CO2 (stereo not drawn) [Compound 1-24] ?
Out: > 8.00

In: Which pIC50 is reported with Recombinant ROCK2 (amino acids 5-554) (Homo sapiens) for this entry: COc1[nH]ncc1-c1ncc2c(C(=O)C3COc4ccc(F)cc4C3)cn(CC(C)(C)O)c2n1 (stereo not drawn) [Compound 1-52] ?
Out: 7.30 to 7.96

====

Molecular target: Recombinant ROCK1 (amino acids 1-477) (Homo sapiens, UniProt Q13464)
Construct: Recombinant ROCK1 (amino acids 1-477)
Sequence (Q13464 1-477): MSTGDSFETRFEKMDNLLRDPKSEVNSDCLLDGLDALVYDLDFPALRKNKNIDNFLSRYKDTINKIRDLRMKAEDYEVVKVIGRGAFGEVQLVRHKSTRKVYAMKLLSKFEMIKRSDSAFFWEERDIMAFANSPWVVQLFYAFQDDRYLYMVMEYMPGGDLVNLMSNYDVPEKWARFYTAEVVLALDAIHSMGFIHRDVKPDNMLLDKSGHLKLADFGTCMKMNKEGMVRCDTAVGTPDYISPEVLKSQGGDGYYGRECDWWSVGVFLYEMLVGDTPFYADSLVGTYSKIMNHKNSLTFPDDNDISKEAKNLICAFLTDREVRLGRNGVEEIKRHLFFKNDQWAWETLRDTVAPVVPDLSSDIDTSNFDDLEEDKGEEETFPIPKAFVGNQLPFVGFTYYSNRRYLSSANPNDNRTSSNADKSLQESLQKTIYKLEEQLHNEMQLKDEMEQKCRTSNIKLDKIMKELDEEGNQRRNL
Assay: ROCK inhibition assay, LANCE Ultra TR-FRET kinase assay
Format: biochemical
Conditions: at Km of ATP (table title); method: 1 mM ATP, 50 nM ULight-CREBtide substrate, 1 hour, room temperature
pIC50: −log10 of the molar value.
parameter: pIC50

| molecule | pIC50 |
| --- | --- |
| CC[C@H](O)Cn1cc(C(=O)C2COc3ccc(Cl)cc3C2)c2cnc(-c3cn[nH]c3Cl)cc21 (stereo partly drawn) | 6.30 to 7.29 |
| O=C(c1cn(CCO)c2cc(-c3cn[nH]c3)ccc12)C1COc2ccccc2C1 (stereo not drawn) | 7.30 to 7.96 |
| O=C(c1cn(CCO)c2cc(-c3c[nH]c4ncccc34)ccc12)C1COc2ccccc2C1 (stereo not drawn) | 6.30 to 7.29 |
| O=C(c1nn(CCO)c2cc(-c3c[nH]nc3C(F)(F)F)ccc12)C1COc2ccc(F)cc2C1 (stereo not drawn) | 6.30 to 7.29 |
| COc1[nH]ncc1-c1cc2c(cn1)c(C(=O)C1COc3ccc(Cl)cc3C1)cn2CCN(C)C (stereo not drawn) | > 8.00 |

In: What does the data say about its pIC50? Entry: O=C(c1cn(CCO)c2cc(-c3c[nH]nc3Cl)ccc12)C1COc2ccccc2O1 (stereo not drawn)
Out: > 8.00

In: What does the data say about its pIC50? Entry: O=C(c1nn(CCO)c2cc(-c3cn[nH]c3)ccc12)C1COc2ccc(F)cc2C1 (stereo not drawn)
Out: 7.30 to 7.96

In: What does the data say about its pIC50? Entry: O=C(c1cn(CCO)c2cc(-c3c[nH]nc3Cl)ncc12)C1COc2ccc(F)cc2C1 (stereo not drawn)
Out: 7.30 to 7.96

In: What does the data say about its pIC50? Entry: O=C(c1nn(CCO)c2cc(-c3cn[nH]c3)ccc12)C1COc2ccc(Cl)cc2O1 (stereo not drawn)
Out: 6.30 to 7.29

In: What does the data say about its pIC50? Entry: C[C@H](O)Cn1cc(C(=O)C2COc3ccc(Cl)cc3C2)c2cnc(-c3cn[nH]c3Cl)nc21 (stereo partly drawn)
Out: 7.30 to 7.96

In: What does the data say about its pIC50? Entry: COc1n[nH]cc1-c1ccc2c(C(=O)C3COc4ccc(Cl)cc4C3)cn(CCO)c2c1 (racemic)
Out: 7.30 to 7.96

In: What does the data say about its pIC50? Entry: COc1n[nH]cc1-c1ccc2c(C(=O)[C@@H]3COc4ccc(Cl)cc4C3)cn(CCO)c2c1 (single isomer, unassigned)
Out: 7.30 to 7.96

In: What does the data say about its pIC50? Entry: C[C@@H](O)Cn1cc(C(=O)C2COc3ccc(Cl)cc3C2)c2cnc(-c3cn[nH]c3F)nc21 (stereo partly drawn)
Out: 7.30 to 7.96

In: What does the data say about its pIC50? Entry: O=C(c1cn(CCO)c2cc(-c3cn[nH]c3)ccc12)C1COc2ccc(F)cc2C1 (stereo not drawn)
Out: > 8.00

In: What does the data say about its pIC50? Entry: COc1n[nH]cc1-c1ccc2c(C(=O)C3COc4ccc(F)cc4C3)nn(CCO)c2c1 (stereo not drawn)
Out: 7.30 to 7.96

In: What does the data say about its pIC50? Entry: Cc1n[nH]cc1-c1ccc2c(C(=O)C3COc4ccc(F)cc4C3)cn(CCO)c2n1 (stereo not drawn)
Out: > 8.00

In: What does the data say about its pIC50? Entry: CC(C)(O)Cn1cc(C(=O)[C@H]2COc3ccc(Cl)cc3C2)c2cnc(-c3c[nH]nc3Cl)cc21
Out: < 6.30

In: What does the data say about its pIC50? Entry: COc1[nH]ncc1-c1ncc2c(C(=O)C3COc4ccc(Cl)cc4C3)cn(C[C@H](C)O)c2n1 (stereo partly drawn)
Out: 6.30 to 7.29

In: What does the data say about its pIC50? Entry: C[C@H](O)Cn1cc(C(=O)[C@@H]2COc3ccc(Cl)cc3C2)c2cnc(-c3cn[nH]c3Cl)nc21
Out: > 8.00

In: What does the data say about its pIC50? Entry: COc1n[nH]cc1-c1ccc2c(C(=O)C3(C)COc4ccccc4O3)nn(CCO)c2c1 (stereo not drawn)
Out: 6.30 to 7.29

In: What does the data say about its pIC50? Entry: CC(C)(O)Cn1cc(C(=O)[C@@H]2COc3ccc(Cl)cc3C2)c2cnc(-c3cn[nH]c3F)nc21
Out: > 8.00

In: What does the data say about its pIC50? Entry: COc1[nH]ncc1-c1cc2c(cn1)c(C(=O)[C@@H]1COc3ccc(Cl)cc3C1)cn2C[C@H](C)O
Out: 7.30 to 7.96

In: What does the data say about its pIC50? Entry: COc1[nH]ncc1-c1ncc2c(C(=O)C3COc4ccc(F)cc4C3)cn(CC(C)(C)O)c2n1 (stereo not drawn)
Out: 6.30 to 7.29

In: What does the data say about its pIC50? Entry: C[C@H](O)Cn1cc(C(=O)[C@@H]2COc3ccc(Cl)cc3C2)c2cnc(-c3cn[nH]c3F)cc21
Out: 7.30 to 7.96

In: What does the data say about its pIC50? Entry: C[C@H](O)Cn1cc(C(=O)C2COc3ccc(Cl)cc3C2)c2cnc(-c3cn[nH]c3Cl)cc21 (stereo partly drawn)
Out: 7.30 to 7.96
